Tested on: M. abscessus (ATCC 19977)
Assay: MIC by broth microdilution, M. abscessus in cation adjusted Mueller Hinton broth
Assay type: cell-based
Conditions: Mycobacteroides abscessus, ATCC19977, 96 h; ATCC 19977; cation adjusted Mueller Hinton broth without growth supplement; 30° C., 4 days; read-out: MIC M. abscessus MH
Field: MIC. Provide a value for each of the compounds that follow.
Give the value, in units of µg/mL, as a plain number.

(Q) Request: MIC, test system M. abscessus (ATCC 19977), entry CO[C@H]1/C=C/O[C@@]2(C)Oc3c(C)c(O)c4c(c3C2=O)C2=NC3(CCN(CC(C)C)CC3)NC2=C(NC(=O)/C(C)=C\C=C\[C@H](C)[C@H](O)[C@@H](C)[C@@H](O)[C@@H](C)[C@H](OC(=O)N2C[C@@H]3C[C@H]2CN3CC2CCCCC2)[C@@H]1C)C4=O [Compound 58]
(A) 0.125

(Q) // map CO[C@H]1/C=C/O[C@@]2(C)Oc3c(C)c(O)c4c(c3C2=O)C2=NC3(CCN(CC(C)C)CC3)NC2=C(NC(=O)/C(C)=C\C=C\[C@H](C)[C@H](O)[C@@H](C)[C@@H](O)[C@@H](C)[C@H](OC(=O)N2CCCC3(CN(CC5CCCCC5)C3)C2)[C@@H]1C)C4=O [Compound 65] to recorded MIC (system: M. abscessus (ATCC 19977))
(A) 0.125

---

Tested on: A. baumannii (HUMC1 strain)
Experiment: MIC by broth microdilution, A. baumannii (RPMI + 10% FCS)
Format: cell-based
Conditions: Acinetobacter baumannii; HUMC1 strain; RPMI medium + 10% FCS; 35° C., 20 hours; read-out: MIC A. baumannii
value.type: MIC (ng/mL)
# number only, unit ng/mL dropped from output

(Q) Dear colleague, I am looking for the recorded MIC of the following compound: CO[C@H]1/C=C/O[C@@]2(C)Oc3c(C)c(O)c4c(c3C2=O)C2=NC3(CCN(CC(C)C)CC3)NC2=C(NC(=O)/C(C)=C\C=C\[C@H](C)[C@H](O)[C@@H](C)[C@@H](O)[C@@H](C)[C@H](OC(=O)NC2CCN(Cc3ccccc3)CC2)[C@@H]1C)C4=O
(A) 4

(Q) MIC lookup needed for CO[C@H]1/C=C/O[C@@]2(C)Oc3c(C)c(O)c4c(c3C2=O)C2=NC3(CCN(CC(C)C)CC3)NC2=C(NC(=O)/C(C)=C\C=C\[C@H](C)[C@H](O)[C@@H](C)[C@@H](O)[C@@H](C)[C@H](OC(=O)N2CCN(CC(C)C)CC2)[C@@H]1C)C4=O , thanks.
(A) 30

(Q) Give the measured MIC of CO[C@H]1/C=C/O[C@@]2(C)Oc3c(C)c(O)c4c(c3C2=O)C2=NC3(CCN(CC(C)C)CC3)NC2=C(NC(=O)/C(C)=C\C=C\[C@H](C)[C@H](O)[C@@H](C)[C@@H](O)[C@@H](C)[C@H](OC(=O)N2CCC3(CC2)CCN(C(C)C)CC3)[C@@H]1C)C4=O .
(A) 2

---

Provide the recorded MIC for the entries that follow.
System: A. baumannii (HUMC1 strain)
Assay: MIC by broth microdilution, A. baumannii (RPMI + 10% FCS)
Format: cell-based
Details: Acinetobacter baumannii; HUMC1 strain; RPMI medium + 10% FCS; 35° C., 20 hours; read-out: MIC A. baumannii
Hey, just the number and the unit after it is fine.

(Q) Test system A. baumannii (HUMC1 strain); read-out MIC; what value for CO[C@H]1/C=C/O[C@@]2(C)Oc3c(C)c(O)c4c(c3C2=O)C2=NC3(CCN(CC(C)C)CC3)NC2=C(NC(=O)/C(C)=C\C=C\[C@H](C)[C@H](O)[C@@H](C)[C@@H](O)[C@@H](C)[C@H](OC(=O)N2CCCN(c3ccc(F)cc3)CC2)[C@@H]1C)C4=O ?
(A) 0.03 µg/mL

(Q) Give recorded MIC with A. baumannii (HUMC1 strain) for the following compound: CO[C@H]1/C=C/O[C@@]2(C)Oc3c(C)c(O)c4c(c3C2=O)C2=NC3(CCN(CC(C)C)CC3)NC2=C(NC(=O)/C(C)=C\C=C\[C@H](C)[C@H](O)[C@@H](C)[C@@H](O)[C@@H](C)[C@H](OC(=O)N2C[C@@H]3C[C@H]2CN3CC2CCCCC2)[C@@H]1C)C4=O
(A) 0.03 µg/mL

(Q) Checklist item: MIC tested on A. baumannii (HUMC1 strain), entry CCN1CCC2(CC1)CCN(C(=O)O[C@H]1[C@H](C)[C@H](O)[C@H](C)[C@@H](O)[C@@H](C)/C=C/C=C(/C)C(=O)NC3=C4NC5(CCN(CC(C)C)CC5)N=C4c4c(c(O)c(C)c5c4C(=O)[C@@](C)(O/C=C/[C@H](OC)[C@H]1C)O5)C3=O)CC2 , value?
(A) 0.003 µg/mL

(Q) Entry CO[C@H]1/C=C/O[C@@]2(C)Oc3c(C)c(O)c4c(c3C2=O)C2=NC3(CCN(CC(C)C)CC3)NC2=C(NC(=O)/C(C)=C\C=C\[C@H](C)[C@H](O)[C@@H](C)[C@@H](O)[C@@H](C)[C@H](OC(=O)N2CCC(N(C)c3ccccc3)CC2)[C@@H]1C)C4=O , system A. baumannii (HUMC1 strain): what MIC was measured?
(A) 0.125 µg/mL
